Tested on: pigweed
Assay notes: Test A preemergence
Assay type: in vivo, Amaranthus retroflexus
Condition notes: Preemergence, 1000 g ai/ha; 0 to 100 scale, 0 no effect, 100 complete control
Endpoint label: Pigweed plant response rating
Give bare numbers.

# Compound structure string, Endpoint label, Reported measurement
rows = [
    ("CCc1cc(C(=O)NCC(F)(F)F)nn1Cc1cccc(OC(F)(F)F)c1", "Pigweed plant response rating", 100),
    ("C#CCNC(=O)c1cc(CC)n(Cc2cccc(C(F)(F)F)c2)n1", "Pigweed plant response rating", 10),
]

For every item in the list below, what is its measured Pigweed plant response rating?
1. CCc1cc(C(=O)NC(C)C)nn1Cc1cccc(C(F)(F)F)c1
2. CCCNC(=O)c1cc(CC)n(Cc2cccc(OC(F)(F)F)c2)n1
3. CCc1cc(C(=O)NC2CC2)nn1Cc1cccc(C(F)(F)F)c1
4. CCCc1cc(C(=O)NCC(F)(F)F)nn1Cc1cccc(OC(F)(F)F)c1

Ans:
1. 80
2. 90
3. 90
4. 100

----------
System: morningglory
Assay notes: Test A preemergence
Format: in vivo, Ipomoea spp.
Condition notes: preemergence, 125 g ai/ha; visual injury, 0 to 100 scale, approx. 10 days
Assignment: determine reported Morningglory plant response rating for the given compounds.
Answers are plain numbers.

# Compound structure string, Morningglory plant response rating
measured = [
    ("CCONC(=O)c1cc(CC)n(Cc2cccc(OC(F)(F)F)c2)n1", 60),
    ("CCCc1cc(-c2ccc(C(F)(F)F)cc2)nn1Cc1ccnc(C(F)(F)F)c1", 40),
    ("Cc1cc(C(=O)NCC(F)(F)F)nn1Cc1cccc(OC(F)(F)F)c1", 0),
    ("CCc1cc(C(=O)NC2CC2)nn1Cc1cccc(C(F)(F)F)n1", 0),
    ("CCOc1cc(C(=O)NCC(F)(F)F)nn1Cc1cc(C(F)(F)F)nn1C", 80),
]

Now for the compound whose Morningglory plant response rating we want.
Q: Would you kindly share the measured Morningglory plant response rating for Cc1cc(C(=O)NCC(F)(F)F)nn1Oc1ccnc(C(F)(F)F)c1 ?
Ans: 0

----------
Tested on: blackgrass
Assay notes: Test C postemergence
Type: in vivo, Alopecurus myosuroides
Condition notes: postemergence, 62 g ai/ha; scale 0 to 100
Assignment: determine reported Blackgrass plant response rating for the given compounds.
One number for each entry.

For orientation, consider the following solved cases.
# Compound structure string, Experimental system, Reported measurement
records = [
    ("CCCc1cc(C(=O)NC(C)C)nn1Cc1cc(C(F)(F)F)nn1C", "blackgrass", 5),
    ("CCOc1cc(C(=O)NOC(C)C)nn1Cc1ccnc(C(F)(F)F)c1", "blackgrass", 5),
]

For every item in the list below, what is its measured Blackgrass plant response rating?
1. CCONC(=O)c1cc(CC)n(Cc2ccnc(C(F)(F)F)c2)n1
2. CCCNC(=O)c1cc(CCF)n(Cc2ccnc(C(F)(F)F)c2)n1
3. CCc1cc(-c2ccc(C(F)(F)F)cc2)nn1Cc1ccnc(C(F)(F)F)c1
4. CCc1cc(C(=O)NCC(F)(F)F)nn1Cc1nc(C(F)(F)F)nn1C

Ans:
5
15
35
10

----------
System: barnyardgrass
Assay notes: Test C preemergence
Type: in vivo, Echinochloa crus-galli
Condition notes: preemergence, 62 g ai/ha; scale 0 to 100 (0 no effect, 100 complete control), 13 to 15 days
Assignment: determine reported Barnyardgrass plant response rating for the given compounds.
Give bare numbers.

# Compound structure string, Experimental system, Endpoint label, Reported measurement
data = [
    ("CCc1cc(C(=O)NCC(F)(F)F)nn1Cc1cc(C(F)(F)F)nn1C", "barnyardgrass", "Barnyardgrass plant response rating", 100),
    ("CCc1cc(C(=O)NCC(F)(F)F)nn1Cc1ccnc(SC(F)(F)F)c1", "barnyardgrass", "Barnyardgrass plant response rating", 95),
]

For every item in the list below, what is its measured Barnyardgrass plant response rating?
1. CCc1cc(C(=O)NCC(F)(F)F)nn1Cc1ccnc(Br)c1
2. O=C(NC1CC1)c1cc(CCF)n(Cc2ccnc(C(F)(F)F)c2)n1
3. CCCc1cc(C(=O)NC2CC2)nn1Cc1ccnc(OC(F)F)c1

Ans:
1: 40; 2: 100; 3: 98

----------
Assignment: determine reported Surinam Grass plant response rating for the given molecules.
Test system: Surinam grass
Assay notes: Test C postemergence
Assay type: in vivo, Brachiaria decumbens
Condition notes: 62 g ai/ha, scale 0 to 100
Answers are plain numbers.

For orientation, consider the following solved cases.
# Molecule, Surinam Grass plant response rating
measured = [
    ("CCc1cc(C(=O)NCC(F)(F)F)nn1Cc1cccc(OC(F)(F)F)c1 [Compound 20]", 5),
    ("CCONC(=O)c1cc(CC)n(Cc2cccc(OC(F)(F)F)c2)n1 [Compound 72]", 10),
    ("CCCNC(=O)c1cc(CC)n(Cc2cccc(OC(F)(F)F)c2)n1 [Compound 27]", 5),
]

Now for the molecule whose Surinam Grass plant response rating we want.
Q: Would you kindly share the measured Surinam Grass plant response rating for CCc1cc(C(=O)NOC(C)C)nn1Cc1cccc(OC(F)(F)F)c1 [Compound 70] ?
Ans: 10

----------
Assignment: determine reported Corn plant response rating for the given compounds.
System: corn
Assay notes: Test A postemergence
Assay type: in vivo, Zea mays
Condition notes: Postemergence, 500 g ai/ha; 0 to 100 scale (0 no effect, 100 complete control)
One number for each entry.

For orientation, consider the following solved cases.
# Compound, Corn plant response rating
records = [
    ("CCONC(=O)c1cc(CC)n(Cc2ccnc(OC(F)F)c2)n1", 100),
    ("CCc1cc(C(=O)NC2CC2)nn1Cc1nnc(C(F)(F)F)o1", 10),
    ("CCc1cc(C(=O)NCC(F)(F)F)nn1Oc1cccc(C(F)(F)F)c1 [Compound 218]", 20),
    ("O=C(NC1CC1)c1cc(CCF)n(Cc2ccnc(C(F)(F)F)c2)n1", 80),
]

For every item in the list below, what is its measured Corn plant response rating?
1. COCc1cc(C(=O)NC2CC2)nn1Cc1ccnc(C(F)(F)F)c1
2. O=C(NCC(F)(F)F)c1cc(CCF)n(Cc2ccnc(C(F)(F)F)c2)n1
3. CCCc1cc(C(=O)NC(C)C)nn1Cc1ccnc(C(F)(F)F)c1
4. CCCNC(=O)c1cc(OCC)n(Cc2ccnc(OC(F)F)c2)n1
5. CCc1cc(C(=O)NCC(F)(F)F)nn1Cc1ccnc(Br)c1

Ans:
[70, 90, 100, 100, 90]

----------
Tested on: velvetleaf
Assay notes: Test A postemergence
Type: in vivo, Abutilon theophrasti
Condition notes: postemergence, 125 g ai/ha, about 10 days, visual rating on 0 to 100 scale (0 no effect, 100 complete control)
Classify as follows. Reported Velvetleaf plant response rating greater than or equal to 60: Criterion met. Reported Velvetleaf plant response rating below: Criterion not met.

The following compounds have reported results that may help.
# Compound structure string, Class
data = [
    ("O=C(NC1CC1)c1cc(CCCl)n(Cc2ccnc(C(F)(F)F)c2)n1", "Criterion met"),
    ("CCc1cc(C(=O)NCC#N)nn1Cc1ccnc(C(F)(F)F)c1", "Criterion not met"),
    ("CCc1cc(C(=O)NC(C)C)nn1Cc1cc(C(F)(F)F)nn1CC", "Criterion not met"),
    ("CCc1cc(C(=O)NC2CC2)nn1Cc1nnc(C(F)(F)F)o1", "Criterion not met"),
    ("CCNC(=O)c1cc(CC)n(Cc2cc(C(F)(F)F)nn2C)n1", "Criterion met"),
]

From here, focus on the item given below.
Q: Does Velvetleaf plant response rating meet or surpass 60 for O=C(NC1CC1)c1cc(I)n(Cc2cccc(C(F)(F)F)c2)n1 ?
Ans: Criterion not met

----------
Tested on: barnyardgrass
Assay notes: Test A postemergence
Format: in vivo, Echinochloa crus-galli
Condition notes: Postemergence, 500 g ai/ha; 0 to 100 scale (0 no effect, 100 complete control)
Assignment: determine reported Barnyardgrass plant response rating for the given compounds.
Give bare numbers.

For every item in the list below, what is its measured Barnyardgrass plant response rating?
1. CCCc1cc(C(=O)NCC(F)(F)F)nn1Cc1ccnc(OC(F)F)c1 [Compound 127]
2. CCCNC(=O)c1cc(CC)n(Oc2cccc(OC(F)(F)F)c2)n1 [Compound 219]
3. CCNC(=O)c1cc(CC)n(Cc2cc(C(F)(F)F)nn2C)n1 [Compound 154]
4. CCc1cc(C(=O)NCC(F)(F)F)nn1Cc1cc(C(F)(F)C(F)(F)F)nn1C [Compound 227]
5. CCc1cc(C(=O)NC)nn1Cc1ccnc(C(F)(F)F)c1 [Compound 204]
6. O=C(NC1CC1)c1cc(CCF)n(Cc2ccnc(C(F)(F)F)c2)n1 [Compound 176]

Ans:
1: 90; 2: 40; 3: 100; 4: 80; 5: 50; 6: 90
